Hey, just so you know, these numbers are from ChEMBL document CHEMBL6083232.

# target-or-test-system: Dual specificity tyrosine-phosphorylation-regulated kinase 1A (Homo sapiens)
# assay-overview: Inhibition of DYRK1A (unknown origin) extracted from Escherichia coli BL21 (DE3) cells measured for 60 mins by FRET assay
Reported pIC50 values are given for each entry in this list.
Lab note: report pIC50 as minus log10 of the concentration in molar units, number only.

Sample answers from the record:
smiles | pIC50
CN(Cc1ccco1)c1ncnc2ccc(-c3ccc4c(c3)OCO4)cc12 | 6.82
CCCC#Cc1ccnc2[nH]cc(-c3ccnc(N)n3)c12 | 7.70
O=C1NC(Nc2ccc(O)cc2)=N/C1=C\c1ccc2c(c1)OCO2 | 7.08

Consider the record given below.
Lookup: Any idea what pIC50 was measured for Oc1ccc(-c2cnc3cnc(-c4ccc(O)cc4)nc3c2)cc1 ?
Found: 6.05

====

# target-or-test-system: Dual specificity tyrosine-phosphorylation-regulated kinase 1A (Homo sapiens, UniProt Q13627)
# assay-overview: Inhibition of human DYRK1A in presence of ATP by Kinomescan method
Reported pIC50 values are given for each entry in this list.
Lab note: report pIC50 as minus log10 of the concentration in molar units, number only.

Sample answers from the record:
compound | recorded-result
COC(=N)c1nc2ccc3ncnc(Nc4ccc(F)cc4Br)c3c2s1 | 8.52
CCn1c2cc(OC)ccc2c2ccnc(C)c21 | 5.05
NC1CCC(Nc2ncc3c(-c4ccnc(NCc5ccccc5)n4)n[nH]c3n2)CC1 (stereo unspecified) | 8.22
NC1CCC(Nc2ncc3c(-c4ccnc(NCc5ccsc5)n4)n[nH]c3n2)CC1 (stereo unspecified) | 7.85
COc1cc2[nH]c(=O)c(C(=O)Nc3cc(C(=O)NCc4cccc(Cl)c4)ccc3C)cc2cc1OCCN1CCOCC1 | 7.80

Consider the record given below.
Lookup: Any idea what pIC50 was measured for NCC(Nc1nccc(-c2n[nH]c3nc(NC4CCC(N)CC4)ncc23)n1)c1cccc(Cl)c1 (stereo unspecified) ?
Found: 8.34

====

# target-or-test-system: Dual specificity tyrosine-phosphorylation-regulated kinase 1B (Homo sapiens, UniProt Q9Y463)
# Sequence (Q9Y463 whole entry): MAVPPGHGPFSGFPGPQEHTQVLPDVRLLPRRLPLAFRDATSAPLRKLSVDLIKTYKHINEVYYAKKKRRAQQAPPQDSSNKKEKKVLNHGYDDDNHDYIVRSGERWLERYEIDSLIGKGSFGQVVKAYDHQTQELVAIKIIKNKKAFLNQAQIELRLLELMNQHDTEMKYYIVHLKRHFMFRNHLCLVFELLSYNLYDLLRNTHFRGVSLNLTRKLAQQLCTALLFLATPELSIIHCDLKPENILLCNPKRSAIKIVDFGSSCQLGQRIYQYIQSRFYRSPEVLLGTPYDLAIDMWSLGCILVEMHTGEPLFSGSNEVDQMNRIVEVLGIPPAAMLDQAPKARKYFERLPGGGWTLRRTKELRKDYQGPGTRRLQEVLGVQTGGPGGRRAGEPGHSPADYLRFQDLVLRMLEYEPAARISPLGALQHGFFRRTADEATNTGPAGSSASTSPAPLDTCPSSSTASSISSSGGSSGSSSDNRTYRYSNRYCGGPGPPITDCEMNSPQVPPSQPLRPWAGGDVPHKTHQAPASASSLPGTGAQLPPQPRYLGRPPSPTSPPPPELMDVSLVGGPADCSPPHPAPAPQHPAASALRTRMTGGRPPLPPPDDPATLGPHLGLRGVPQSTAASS
quantity: IC50 (µM)
# value in µM; strip the unit string

Lookup: Any idea what IC50 was measured for O=C(Nc1ccc(C(=O)NCc2ccccc2)cc1)Nc1nc2ccc(O)cc2s1 ?
Found: 0.0566

====

# assay-overview: Half life in human
# Format: ADME
quantity: half-life

Lookup: Any idea what half-life was measured for CN1CCN(C(=O)c2ccc(NC(=O)Nc3nc4ccc(O)cc4s3)cc2)CC1 ?
Found: > 1 h

====

# target-or-test-system: Dual specificity protein kinase CLK1 (Homo sapiens)
# Sequence (P49759 whole entry): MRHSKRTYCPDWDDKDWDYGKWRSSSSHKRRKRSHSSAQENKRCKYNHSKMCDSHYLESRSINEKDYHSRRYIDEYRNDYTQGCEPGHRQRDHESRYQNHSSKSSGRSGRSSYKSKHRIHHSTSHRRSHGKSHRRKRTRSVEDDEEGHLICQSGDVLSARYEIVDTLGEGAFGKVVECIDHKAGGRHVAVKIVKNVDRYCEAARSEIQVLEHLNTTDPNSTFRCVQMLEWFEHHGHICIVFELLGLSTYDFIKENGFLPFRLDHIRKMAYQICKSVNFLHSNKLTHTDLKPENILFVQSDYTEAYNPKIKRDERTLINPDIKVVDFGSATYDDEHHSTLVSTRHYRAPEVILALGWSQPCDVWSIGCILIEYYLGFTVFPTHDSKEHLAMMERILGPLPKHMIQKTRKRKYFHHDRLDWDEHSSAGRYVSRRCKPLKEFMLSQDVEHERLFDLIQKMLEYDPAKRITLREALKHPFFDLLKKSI
quantity: pIC50
Lab note: report pIC50 as minus log10 of the concentration in molar units, number only.

Lookup: API: value(readout= pIC50, system= Dual specificity protein kinase CLK1 (Homo sapiens), query= COc1ccc2cc3c4c(cc(OC)c(OC)c4c2c1)C(=O)N3 )
Found: 7.30

====

# target-or-test-system: Dual specificity tyrosine-phosphorylation-regulated kinase 1A (Homo sapiens)
# assay-overview: Inhibition of DYRK1A (unknown origin) by FRET assay
pIC50: −log10 of the molar value.
Label scheme for pIC50: lower than 8 is No, 8 and above is Yes.

smiles | cat
Cc1ccc(NC(=O)c2n[nH]c3ccc(-c4cncc(CN5CCCCC5)c4)cc23)cn1 | Yes

Lookup: For this compound, is measured pIC50 8 or higher? Cc1nc(Nc2ccccc2)c2c(-c3cc(N)nc(N)c3)c[nH]c2n1
Found: Yes

Lookup: For this compound, is measured pIC50 8 or higher? CCN1/C(=C/C(C)=O)Sc2cc3oc4ccccc4c3cc21
Found: No

Lookup: For this compound, is measured pIC50 8 or higher? COc1ccc2c(c1)[nH]c1c3c(OC)cncc3cc(C#N)c21
Found: No

Lookup: For this compound, is measured pIC50 8 or higher? CC(=O)Nc1nc2cc(O)ccc2s1
Found: No

Lookup: For this compound, is measured pIC50 8 or higher? Cc1nc2ccc(-c3cc(N)nc(N)c3)nc2n1-c1ccccc1
Found: Yes
